Multiple publications report Ki for Coagulation factor X (Homo sapiens); what follows is a combined list.
Give just the number in µM; leave the unit off.

The cases that follow already have their Ki on record.
compound=CNC(=O)C1CCN(C(=O)[C@H](Cc2cccc(C(=N)N)c2)NS(=O)(=O)c2ccc3ccccc3c2)CC1 measured_attribute=Ki result_number=76
compound=CN1CCN(c2ccc(NC(=O)c3sc4ccccc4c3Cl)c(C(=O)Nc3ccc(Cl)cc3)c2)CC1 measured_attribute=Ki result_number=0.47
compound=CC(=N)N1CCC(N(CCCC(=O)O)c2ccc3c(c2)nc(C)n3Cc2ccc3ccc(C(=N)N)cc3c2)CC1 measured_attribute=Ki result_number=0.37
compound=N=C(N)c1cccc(C[C@H](NS(=O)(=O)c2cccc(NC(=O)C3CNC3)c2)C(=O)N2CCC(CCN)CC2)c1 measured_attribute=Ki result_number=11.2
compound=CN(CC(=O)N[C@@H](CCCCN)C(=O)C(=O)NCc1ccccn1)C(=O)c1ccccc1Sc1ccccc1C#N measured_attribute=Ki result_number=0.36

Ask: Look up Ki with Coagulation factor X (Homo sapiens) for this compound: N=C(N)c1cc2c(OC(COC(=O)Nc3c(F)cccc3F)c3ccccc3)cccc2s1 (centres undefined)
Result: 1.3

Ask: Look up Ki with Coagulation factor X (Homo sapiens) for this compound: N=C(N)N1CCc2ccc(OC(C(=O)O)c3ccc(OC4CCOCC4)cc3)cc2C1 (centres undefined)
Result: 3

* * *

pKi: −log10 of the molar value.
Multiple publications report pKi for Coagulation factor X (Homo sapiens, UniProt P00742); what follows is a combined list.
Decision: pKi >= 8 yields YES, all other cases yield NO.

Answered cases to consult:
molecule=N=C(N)c1ccccc1Oc1cccc(Oc2ccccc2C(=N)N)n1 classification=NO
molecule=Nc1[nH]ccc2nc(-c3cccc(-c4cccc(CNC(=O)[C@@H](O)Cc5ccccc5)c4)c3O)cc1-2 classification=NO

Ask: Does the molecule CCOc1cc(C(Nc2ccc3cnccc3c2)C(=O)NS(=O)(=O)c2ccccc2S(C)(=O)=O)ccc1OC(C)C (stereo not drawn) have recorded pKi that is 8 or more?
Result: NO

Ask: Does the molecule CCS(=O)(=O)c1ccc2cc1CNC(=O)[C@H](Nc1ccc3c(N)nccc3c1)c1ccc(c(C)c1)CCCC(=O)N2 have recorded pKi that is 8 or more?
Result: NO

* * *

Multiple publications report pKi for Coagulation factor X (Homo sapiens); what follows is a combined list.
pKi: −log10 of the molar value.
Decision: pKi >= 7 yields t, all other cases yield f.

molecule="N=C(N)c1ccc2scc(C(Cc3ccccc3)C(=O)Nc3ccc(Oc4ccccc4)cc3)c2c1 (stereo unspecified)" classification=f
molecule="Cc1nc(-c2cccc(Cl)c2F)n(O)c1C(=O)N[C@@H](Cc1ccc(NC(=O)C2CC2C)cc1)C(=O)Nc1ccc2[nH]c(C(=O)O)cc2c1 (stereo partly specified)" classification=f
molecule="CCOc1cc(C(Nc2ccc3cnccc3c2)C(=O)NS(=O)(=O)c2cccc(S(=O)(=O)NC)c2)ccc1OC(C)C (stereo unspecified)" classification=f
molecule="Cc1c(F)c(Oc2cccc(C(=N)N)c2)nc(Oc2cccc([S+]([O-])N(C)C)c2)c1F (stereo unspecified)" classification=f
molecule=CC(C)(C)[C@@H](O)C(=O)N1CCSC[C@H]1C(=O)NCc1cc(Cl)ccc1CN.O=C(O)C(F)(F)F classification=f

Ask: Does the molecule CCOc1cc([C@@H](Nc2ccc3cnccc3c2)C(=O)NS(=O)(=O)c2ccccc2)ccc1OC(C)C have recorded pKi that is 7 or more?
Result: f

Ask: Does the molecule Cc1cc2ccc1[C@@H](C)COC(=O)Nc1ccc(C3(c4nnn[nH]4)CC3)c(c1)CN(C)C(=O)[C@@H]2Nc1ccc2c(N)ncc(F)c2c1 have recorded pKi that is 7 or more?
Result: f

Ask: Does the molecule CCOc1cc(C(Nc2ccc3cnccc3c2)C(=O)NS(=O)(=O)c2ccccc2S(=O)(=O)CC)ccc1OC(C)C (stereo unspecified) have recorded pKi that is 7 or more?
Result: f
